Listing of entries alongside the reported combination Emax.
Test system: KP-4 (Pancreatic Carcinoma)
Experiment: combination Emax (second highest fraction inhibited in the dose matrix, 72 h); higher = more inhibition; extreme values may be limits of the assay
Reply briefly: the number, and no unit.

CC1(C)CCC(CN2CCN(c3ccc(C(=O)NS(=O)(=O)c4ccc(NCC5CCOCC5)c([N+](=O)[O-])c4)c(Oc4cnc5[nH]ccc5c4)c3)CC2)=C(c2ccc(Cl)cc2)C1 [Venetoclax] + CS(=O)(=O)CCNCc1ccc(-c2ccc3ncnc(Nc4ccc(OCc5cccc(F)c5)c(Cl)c4)c3c2)o1 [Lapatinib] (first compound max 1 µM, 7x7, partner max 10 µM) | 0.0862
NC1(C(=O)N[C@@H](CCO)c2ccc(Cl)cc2)CCN(c2ncnc3[nH]ccc23)CC1 [Capivasertib] + Cn1cnc2c(F)c(Nc3ccc(Br)cc3Cl)c(C(=O)NOCCO)cc21 [Selumetinib] (first compound max 10 µM, 7x7, partner max 10 µM) | 0.483
COc1nnc2ccc(N3CCC(c4ccc(OCCN5CCN(C)C(=O)[C@H]5C)cc4)CC3)nn12 [AZD5153] + C[C@@H]1COCCN1C2=NC(=NC(=C2)C3(CC3)[S@](=N)(=O)C)C4=C5C=CNC5=NC=C4 [AZD6738] (first compound max 1 µM, 7x7, partner max 10 µM) | 0.77
COc1cc2ncnc(Nc3ccc(F)c(Cl)c3)c2cc1OCCCN1CCOCC1 [Gefitinib] + CC(C)n1c(=O)n(C)c2cnc3cc(F)c(-c4ccc(OCCCN5CCCCC5)nc4)cc3c21 [AZD1390] (first compound max 10 µM, 7x7, partner max 0.3 µM) | 0.121
C[C@@H]1COCCN1c1cc(C2([S@](C)(=N)=O)CC2)nc(-c2ccnc3[nH]ccc23)n1 [AZD6738] + O=C(c1cc(Cc2n[nH]c(=O)c3ccccc23)ccc1F)N1CCN(C(=O)C2CC2)CC1 [Olaparib] (first compound max 10 µM, 7x7, partner max 10 µM) | 0.706

Recorded combination Emax (compound C[C@@H](c1ccc2nccn2c1)n1nnc2ncc(-c3cnn(C)c3)nc21 [Savolitinib] + CC1(C)CCC(CN2CCN(c3ccc(C(=O)NS(=O)(=O)c4ccc(NCC5CCOCC5)c([N+](=O)[O-])c4)c(Oc4cnc5[nH]ccc5c4)c3)CC2)=C(c2ccc(Cl)cc2)C1 [Venetoclax] (first compound max 1 µM, 7x7, partner max 1 µM) ): 0.453

Looking up CCc1c2c(nc3ccc(O)cc13)-c1cc3c(c(=O)n1C2)COC(=O)[C@]3(O)CC [SN-38] + CN(C)CCCOc1ccc(-c2ccc3ncc4c(c3c2)n(C2CCOCC2)c(=O)n4C)cn1 [AZD0156] (first compound max 0.3 µM, 7x7, partner max 1 µM) , I see its combination Emax listed as 0.817

Notebook: CN(C)CCCOc1ccc(-c2ccc3ncc4c(c3c2)n(C2CCOCC2)c(=O)n4C)cn1 [AZD0156] + O=C(c1cc(Cc2n[nH]c(=O)c3ccccc23)ccc1F)N1CCN(C(=O)C2CC2)CC1 [Olaparib] (first compound max 3 µM, partner max 3 µM) , combination Emax read as 0.287

The reported value for Cn1cnc2c(F)c(Nc3ccc(Br)cc3Cl)c(C(=O)NOCCO)cc21 [Selumetinib] + CC(C)n1c(=O)n(C)c2cnc3cc(F)c(-c4ccc(OCCCN5CCCCC5)nc4)cc3c21 [AZD1390] (first compound max 10 µM, 7x7, partner max 0.3 µM) in terms of combination Emax is 0.283

So for CC1(C)CCC(CN2CCN(c3ccc(C(=O)NS(=O)(=O)c4ccc(NCC5CCOCC5)c([N+](=O)[O-])c4)c(Oc4cnc5[nH]ccc5c4)c3)CC2)=C(c2ccc(Cl)cc2)C1 [Venetoclax] + Cc1cc2ncnn2cc1Nc1ncc2c(n1)n(C1CCOCC1)c(=O)n2C [AZD7648] (first compound max 1 µM, 7x7, partner max 10 µM) , the logged combination Emax turned out to be 0.126

Per the records, this compound ( COc1cccc(OCCCN)c1-c1cc(Nc2cnc(C#N)cn2)n[nH]1 [Prexasertib] + CN(C)CCCOc1ccc(-c2ccc3ncc4c(c3c2)n(C2CCOCC2)c(=O)n4C)cn1 [AZD0156] (first compound max 1 µM, 7x7, partner max 1 µM) ) has combination Emax equal to 0.434

// sample CC1(C)CCC(CN2CCN(c3ccc(C(=O)NS(=O)(=O)c4ccc(NCC5CCOCC5)c([N+](=O)[O-])c4)c(Oc4cnc5[nH]ccc5c4)c3)CC2)=C(c2ccc(Cl)cc2)C1 [Venetoclax] + C=CCn1c(=O)c2cnc(Nc3ccc(N4CCN(C)CC4)cc3)nc2n1-c1cccc(C(C)(C)O)n1 [AZD1775] (first compound max 1 µM, partner max 1 µM) , its combination Emax was 0.56

The recorded combination Emax for entry C[C@@H](Oc1cc(-c2cnn(C3CCNCC3)c2)cnc1N)c1c(Cl)ccc(F)c1Cl [Crizotinib] + Cn1cnc2c(F)c(Nc3ccc(Br)cc3Cl)c(C(=O)NOCCO)cc21 [Selumetinib] (first compound max 10 µM, 7x7, partner max 10 µM) equals 0.838

Input CCc1c2c(nc3ccc(O)cc13)-c1cc3c(c(=O)n1C2)COC(=O)[C@]3(O)CC [SN-38] + O=C(c1cc(Cc2n[nH]c(=O)c3ccccc23)ccc1F)N1CCN(C(=O)C2CC2)CC1 [Olaparib] (first compound max 0.3 µM, 7x7, partner max 10 µM) . Output combination Emax: 0.817

combination Emax reading for N#Cc1cnc(Nc2cc(NC[C@H]3CNCCO3)c(C(F)(F)F)cn2)cn1 [SRA737] + O=c1[nH]cc(F)c(=O)[nH]1 [5-Fluorouracil] (first compound max 10 µM, 7x7, partner max 20 µM) : 0.376
